Documented β2 Intrinsic Activity across a set of compounds
molecular target: Adrenergic β2 (Homo sapiens, UniProt P07550); construct: Adherent H292 cells are removed from tissue culture flasks by treatment with Accutase™ cell detachment solution; endogenous in cells; host or cells: H292 cells; assay: Adrenergic β2 mediated cAMP production in H292 cells (AlphaScreen), concentration response; format: cell-based; details: fraction relative to the maximum activity determined for formoterol
Sequence (P07550 whole entry): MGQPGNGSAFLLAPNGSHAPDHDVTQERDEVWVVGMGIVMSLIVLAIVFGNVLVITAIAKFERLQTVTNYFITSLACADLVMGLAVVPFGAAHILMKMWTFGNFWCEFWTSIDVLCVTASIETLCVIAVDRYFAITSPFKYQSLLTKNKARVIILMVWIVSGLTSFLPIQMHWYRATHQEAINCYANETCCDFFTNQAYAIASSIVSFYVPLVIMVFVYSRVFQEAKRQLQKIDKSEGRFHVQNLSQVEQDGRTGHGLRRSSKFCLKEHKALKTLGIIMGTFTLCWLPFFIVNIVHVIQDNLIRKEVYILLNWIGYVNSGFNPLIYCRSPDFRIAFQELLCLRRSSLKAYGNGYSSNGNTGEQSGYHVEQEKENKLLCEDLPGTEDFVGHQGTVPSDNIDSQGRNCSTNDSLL

Before answering, review these 2 worked examples.
[[record]]
compound = "CCN(CCNCCc1ccc(O)c2[nH]c(=O)sc12)C(=O)CCOCCc1cc(Cl)cc(CN2CCC3(CC2)CN(C(=O)c2csc(C(C)C)n2)CCO3)c1 [Example 50, ditrifluoroacetate]"
measured_result = 0.9

[[record]]
compound = "CCN(CCNCCc1ccc(O)c2[nH]c(=O)sc12)C(=O)CCOCCc1cc(CN2CCC3(CC2)CN(C(=O)c2csc(C)n2)CCO3)ccc1Cl [Example 46]"
measured_result = 0.9


q: Give recorded β2 Intrinsic Activity. CCc1nc(C(=O)N2CCOC3(CCN(Cc4cccc(CCOCCC(=O)N(CC)CCNCCc5ccc(O)c6[nH]c(=O)sc56)c4Cl)CC3)C2)cs1 [Example 26, ditrifluoroacetate]
a: 0.8

q: Give recorded β2 Intrinsic Activity. CCN(CCNCCc1ccc(O)c2c1OCC(=O)N2)C(=O)CCOCCc1cccc(CN2CCC3(CC2)CN(C(=O)c2csc(CC(C)C)n2)CCO3)c1F [Example 69, ditrifluoroacetate]
a: 0.8

q: Give recorded β2 Intrinsic Activity. COc1cccc(CN(CCNCCc2ccc(O)c3c2OCC(=O)N3)C(=O)CCOCCc2cccc(CN3CCC4(CC3)CN(C(=O)c3csc(C(C)C)n3)CCO4)c2F)c1 [Example 23, ditrifluoroacetate]
a: 1.2

* * *

Documented β2 Intrinsic Activity across a set of compounds
molecular target: Adrenergic β2 (Homo sapiens, UniProt P07550); construct: Adherent H292 cells are removed from tissue culture flasks by treatment with Accutase™ cell detachment solution; endogenous in cells; host or cells: H292 cells; assay: Adrenergic β2 mediated cAMP production in H292 cells (AlphaScreen), concentration response; format: cell-based; conditions: fraction relative to the maximum activity determined for formoterol
I only need the number, thanks.

[[record]]
compound = "CC(C)c1nc(C(=O)N2CCOC3(CCN(Cc4cccc(OCCCOCCC(=O)N(CCNCCc5ccc(O)c6c5OCC(=O)N6)C5CCCCC5)c4)CC3)C2)cs1 [Example 60, ditrifluoroacetate]"
measured_metric = "β2 Intrinsic Activity"
measured_result = 0.7

[[record]]
compound = "CCCCN(CCNCCc1ccc(O)c2c1OCC(=O)N2)C(=O)CCOCCc1cccc(CCN2CCC3(CC2)CN(C(=O)c2csc(C(C)C)n2)CCO3)c1 [Example 34, ditrifluoroacetate]"
measured_metric = "β2 Intrinsic Activity"
measured_result = 1.0


q: Give recorded β2 Intrinsic Activity. CCc1nc(C(=O)N2CCOC3(CCN(Cc4cccc(CCOCCC(=O)N(CCNCCc5ccc(O)c6c5OCC(=O)N6)[C@H](C)CC)c4Cl)CC3)C2)cs1 [Example 31, ditrifluoroacetate]
a: 1.0

* * *

molecular target: Adrenergic β2 (Homo sapiens); construct: Adherent H292 cells are removed from tissue culture flasks by treatment with Accutase™ cell detachment solution; endogenous in cells; host or cells: H292 cells; assay: Adrenergic β2 mediated cAMP production in H292 cells, single concentration 1 μM; type: cell-based; conditions: NCI-H292, 1 μM compound, cAMP as percentage of the maximum response generated by 1E-07M formoterol, read-out: β2 % effect @1 uM
measured.metric: percent of formoterol maximum response at 1 µM (%)
Report as a plain number; the unit % is understood.

[[record]]
compound = "Cc1ccc(C(=O)N2CCOC3(CCN(Cc4cccc(CCOCCC(=O)N(CCNCCc5ccc(O)c6c5OCC(=O)N6)C5CCCCC5)c4)CC3)C2)s1"
target_or_system = "Adrenergic β2 (Homo sapiens)"
measured_result = 101

[[record]]
compound = "O=C1COc2c(CCNCCN(C(=O)CCOCCc3cccc(CN4CCC5(CC4)CN(C(=O)[C@@H](O)Cc4ccccc4)CCO5)c3)C3CCCCC3)ccc(O)c2N1"
target_or_system = "Adrenergic β2 (Homo sapiens)"
measured_result = 89


q: Give recorded percent of formoterol maximum response at 1 µM. O=C1COc2c(CCNCCN(C(=O)CCOCCc3cccc(CN4CCC5(CC4)CN(C(=O)[C@@H](O)C4CCCCC4)CCO5)c3)C3CCCCC3)ccc(O)c2N1
a: 110

q: Give recorded percent of formoterol maximum response at 1 µM. O=C1COc2c(CCNCCN(C(=O)CCOCCc3cccc(CN4CCC5(CC4)CN(C(=O)C4(c6ccccc6)CC4)CCO5)c3)C3CCCCC3)ccc(O)c2N1
a: 112

q: Give recorded percent of formoterol maximum response at 1 µM. O=C1COc2c(CCNCCN(C(=O)CCOCCc3cccc(CN4CCC5(CC4)CN(C(=O)c4c(F)cccc4F)CCO5)c3)C3CCCCC3)ccc(O)c2N1
a: 97

q: Give recorded percent of formoterol maximum response at 1 µM. O=C1COc2c(CCNCCN(C(=O)CCOCCc3cccc(CN4CCC5(CC4)CN(C(=O)[C@H](O)c4cccc(Cl)c4)CCO5)c3)C3CCCCC3)ccc(O)c2N1
a: 114

q: Give recorded percent of formoterol maximum response at 1 µM. O=C1COc2c(CCNCCN(C(=O)CCOCCc3cccc(CN4CCC5(CC4)CN(C(=O)c4n[nH]cc4Cl)CCO5)c3)C3CCCCC3)ccc(O)c2N1
a: 83

q: Give recorded percent of formoterol maximum response at 1 µM. O=C1COc2c(CCNCCN(C(=O)CCOCCc3cccc(CN4CCC5(CC4)CN(C(=O)C(O)C(F)(F)F)CCO5)c3)C3CCCCC3)ccc(O)c2N1 (stereo not drawn)
a: 112

q: Give recorded percent of formoterol maximum response at 1 µM. O=C1COc2c(CCNCCN(C(=O)CCOCCc3cccc(CN4CCC5(CC4)CN(C(=O)CCCOCc4ccccc4)CCO5)c3)C3CCCCC3)ccc(O)c2N1
a: 113

q: Give recorded percent of formoterol maximum response at 1 µM. COCCOc1ccc(C(=O)N2CCOC3(CCN(Cc4cccc(CCOCCC(=O)N(CCNCCc5ccc(O)c6c5OCC(=O)N6)C5CCCCC5)c4)CC3)C2)cc1
a: 82

q: Give recorded percent of formoterol maximum response at 1 µM. Cc1ccc2nc(C(=O)N3CCOC4(CCN(Cc5cccc(CCOCCC(=O)N(CCNCCc6ccc(O)c7c6OCC(=O)N7)C6CCCCC6)c5)CC4)C3)cn2c1
a: 94

q: Give recorded percent of formoterol maximum response at 1 µM. O=C1COc2c(CCNCCN(C(=O)CCOCCc3cccc(CN4CCC5(CC4)CN(C(=O)c4ccc(C(F)(F)F)cn4)CCO5)c3)C3CCCCC3)ccc(O)c2N1
a: 90

* * *

molecular target: human muscarinic acetylcholine M3 receptor (Homo sapiens, UniProt P20309); construct: expressed in transfected cells; host or cells: CHO-K1 (Chinese Hamster Ovary) cell membranes; assay: Muscarinic 3 receptor binding assay ([3H]NMS competition, SPA), single concentration 1 μM; conditions: 1 μM compound; % inhibition specific [3H]-NMS binding
Sequence (P20309 whole entry): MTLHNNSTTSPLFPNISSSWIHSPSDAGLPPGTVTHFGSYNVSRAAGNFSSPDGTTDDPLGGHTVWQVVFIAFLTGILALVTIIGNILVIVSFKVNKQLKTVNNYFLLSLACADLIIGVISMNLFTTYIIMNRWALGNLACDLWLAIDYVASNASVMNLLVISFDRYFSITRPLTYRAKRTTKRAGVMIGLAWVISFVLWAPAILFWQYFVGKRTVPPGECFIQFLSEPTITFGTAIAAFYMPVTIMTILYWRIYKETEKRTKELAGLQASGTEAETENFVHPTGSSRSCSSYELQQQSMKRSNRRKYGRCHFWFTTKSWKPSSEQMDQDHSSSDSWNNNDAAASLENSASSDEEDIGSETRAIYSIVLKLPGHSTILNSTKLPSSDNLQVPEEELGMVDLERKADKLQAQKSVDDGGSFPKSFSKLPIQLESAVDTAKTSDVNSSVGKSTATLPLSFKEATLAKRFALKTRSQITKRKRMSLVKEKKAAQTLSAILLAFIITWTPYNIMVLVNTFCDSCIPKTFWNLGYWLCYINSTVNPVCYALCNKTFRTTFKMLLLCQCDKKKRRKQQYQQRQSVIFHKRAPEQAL
measured.metric: inhibition at 1 µM (%)
Report as a plain number; the unit % is understood.

[[record]]
compound = "O=C1COc2c(CCNCCN(C(=O)CCOCCc3cccc(CN4CCC5(CC4)CN(C(=O)c4cncc(Br)c4)CCO5)c3)C3CCCCC3)ccc(O)c2N1"
measured_result = 99

[[record]]
compound = "O=C1COc2c(CCNCCN(C(=O)CCOCCc3cccc(CN4CCC5(CC4)CN(C(=O)C4COc6ccccc6O4)CCO5)c3)C3CCCCC3)ccc(O)c2N1 (stereo not drawn)"
measured_result = 100


Okay, now this compound:
q: Give recorded inhibition at 1 µM. Cc1cc(C)n2nc(C(=O)N3CCOC4(CCN(Cc5cccc(CCOCCC(=O)N(CCNCCc6ccc(O)c7c6OCC(=O)N7)C6CCCCC6)c5)CC4)C3)cc2n1
a: 100

* * *

target: Adrenergic β2 (Homo sapiens); construct: Adherent H292 cells are removed from tissue culture flasks by treatment with Accutase™ cell detachment solution; endogenous in cells; host or cells: H292 cells; assay: Adrenergic β2 mediated cAMP production in H292 cells (AlphaScreen), concentration response; type: cell-based; details: 60 min, 300 μM rolipram, read-out: β2 pEC50 (converted)
measured.metric: EC50 (nM)
Report as a plain number; the unit nM is understood.

Before answering, review these 4 worked examples.
[[record]]
molecule = "CC(C)c1nc(C(=O)N2CCOC3(CCN(Cc4cc(F)cc(CCOCCC(=O)N(CCNCCc5ccc(O)c6c5OCC(=O)N6)C5CCCCC5)c4)CC3)C2)cs1 [Example 47, ditrifluoroacetate]"
measured_result = 63.1

[[record]]
molecule = "CC(C)c1nc(C(=O)N2CCOC3(CCN(Cc4cc(CCOCCC(=O)N(CCNCCc5ccc(O)c6c5OCC(=O)N6)C5CCCCC5)ccc4Cl)CC3)C2)cs1 [Example 49, ditrifluoroacetate]"
measured_result = 158

[[record]]
molecule = "CCN(CCNCCc1ccc(O)c2[nH]c(=O)sc12)C(=O)CCOCCCc1cccc(CN2CCC3(CC2)CN(C(=O)c2csc(C(C)C)n2)CCO3)c1F [Example 66, ditrifluoroacetate]"
measured_result = 251

[[record]]
molecule = "O=C1COc2c(CCNCCN(C(=O)CCOCCc3cccc(CN4CCC5(CC4)CN(C(=O)Cc4ccc6c(c4)OCO6)CCO5)c3)C3CCCCC3)ccc(O)c2N1"
measured_result = 200


Okay, now this molecule:
q: Give recorded EC50. CCN(CCNCCc1ccc(O)c2[nH]c(=O)sc12)C(=O)CCOCCc1cc(CN2CCC3(CC2)CN(C(=O)c2csc(C(C)C)n2)CCO3)ccc1F [Example 43, ditrifluoroacetate]
a: 398
